Each recorded value in this set is attributed to patent US20240083888A1.

experiment: Pharmacokinetic experiment in BALB/c mice; type: in vivo; details: male, mouse, plasma, IV, 2 mg/kg
observed_property: AUC(0-t) (ng·h/mL)
Form entry: value (ng·h/mL) — number only.

Quick check: AUC(0-t) of N#Cc1ccc2c(c1)COc1cc(C[C@@H](C#N)NC(=O)[C@@H]3CNCCCO3)c(F)cc1-2 ? 3770

And Cn1c(=O)oc2ccc(-c3ccc(C[C@@H](C#N)NC(=O)[C@@H]4CNCCCO4)cc3)cc21 [AZD7986, reference compound] ? 2120

###

target: rhCatC (Homo sapiens (Human)); assay: In vitro enzyme activity experiment of rhCatC (AMC fluorescence assay); type: biochemical
Sequence (P53634 25-134): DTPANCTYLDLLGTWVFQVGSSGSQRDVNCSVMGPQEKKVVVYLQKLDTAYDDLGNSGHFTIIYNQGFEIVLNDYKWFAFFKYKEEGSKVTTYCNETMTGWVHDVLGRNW
Sequence (P53634 231-394): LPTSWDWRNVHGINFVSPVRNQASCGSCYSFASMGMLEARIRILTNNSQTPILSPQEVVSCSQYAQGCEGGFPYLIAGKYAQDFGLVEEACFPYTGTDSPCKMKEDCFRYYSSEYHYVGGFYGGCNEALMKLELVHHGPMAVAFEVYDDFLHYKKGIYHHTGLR
Sequence (P53634 395-463): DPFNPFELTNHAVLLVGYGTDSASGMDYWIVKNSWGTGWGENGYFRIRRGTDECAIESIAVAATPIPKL
observed_property: pIC50
Quick note: pIC50 means taking -log10 of the concentration in moles per liter.

1. CS(=O)(=O)c1ccc2c(c1)-c1cc(F)c(CC(C#N)NC(=O)[C@@H]3CNCCCO3)cc1OC2 (some centres unmarked) = 7.59

Shift focus to the following entry.
Quick check: pIC50 of N#Cc1cc2c(cn1)-c1cc(F)c(C[C@@H](C#N)NC(=O)[C@@H]3CNCCCO3)cc1OC2 ? 7.49
